Run description: Half life in Wistar rat at 5 mg/kg, po administered as single dose measured after 1 to 24 hrs by reverse-phase HPLC method
Experimental parameters: in vivo
Recorded metric: half-life (h)
Output spec: scalar in h, unitless text.

The following compounds have reported results that may help.
• O=C(COCC(=O)Nc1ccc(Cl)cc1C(=O)O)Nc1ccc(-c2ccoc2)cc1 = 4.2
• O=C(COCC(=O)Nc1ccc(Cl)cc1C(=O)[O-])Nc1cccc(-n2cccc2)c1.[Na+] = 2.2
• O=C(COCC(=O)Nc1ccc(Cl)cc1C(=O)O)Nc1cccc(-c2ccco2)c1 = 4
• COc1ccccc1-c1ccc(C)c(NC(=O)COCC(=O)Nc2ccc(Cl)cc2C(=O)O)c1 = 2.5

Query (compound): O=C(COCC(=O)Nc1ccc(Cl)cc1C(=O)O)Nc1cccc(-c2cn[nH]c2)c1 ; field requested: half-life 3.1

----------
Overview of reported half-life across a group of compounds:
Run description: Half life in Wistar rat at 5 mg/kg, po administered as single dose measured after 1 to 24 hrs by reverse-phase HPLC method
Experimental parameters: in vivo
Please append the unit to your numeric answer.

- O=C(COCC(=O)Nc1ccc(Cl)cc1C(=O)O)Nc1cccc(-c2ccon2)c1: 114 min
- COc1ccc(-c2ccc(C)c(NC(=O)COCC(=O)Nc3ccc(Cl)cc3C(=O)O)c2)cc1: 60 min
- CCN(C(=O)COCC(=O)Nc1ccc(Cl)cc1C(=O)O)c1cc(-c2ccc(F)cc2)ccc1C: 54 min
- COc1cccc(-c2ccc(C)c(NC(=O)COCC(=O)Nc3ccc(Cl)cc3C(=O)O)c2)c1: 90 min

Query (compound): O=C(COCC(=O)Nc1ccc(Cl)cc1C(=O)O)Nc1cccc(-c2ccno2)c1 ; field requested: half-life 360 min

----------
Overview of reported Cmax across a group of molecules:
Run description: Cmax in Wistar rat at 50 mg/kg, po administered as single dose measured after 1 to 24 hrs by reverse-phase HPLC method
Format: ADME, organism-based
Set-up: dose 50 mg/kg, route oral
Experimental parameters: in vivo
Output spec: scalar in µM, unitless text.

Query (molecule): O=C(COCC(=O)N1CCN(C(c2ccccc2)c2ccccc2)CC1)Nc1ccc(Cl)cc1C(=O)O ; field requested: Cmax 34.2

Query (molecule): O=C(COCC(=O)Nc1ccc(Cl)cc1C(=O)[O-])Nc1cccc(-c2ccccn2)c1.[Na+] ; field requested: Cmax 136

Query (molecule): O=C(COCC(=O)Nc1ccc(Cl)cc1C(=O)[O-])Nc1cccc(-c2ccc(F)cc2)c1.[Na+] ; field requested: Cmax 62.8

Query (molecule): CC(=O)Nc1ccc(-c2ccc(C)c(NC(=O)COCC(=O)Nc3ccc(Cl)cc3C(=O)O)c2)cc1 ; field requested: Cmax 0.32

Query (molecule): Cn1cc(-c2cccc(NC(=O)COCC(=O)Nc3ccc(Cl)cc3C(=O)O)c2)cn1 ; field requested: Cmax 20.5

Query (molecule): O=C(COCC(=O)Nc1ccc(Cl)cc1C(=O)O)Nc1cccc(C(F)(F)F)c1 ; field requested: Cmax 58.6

Query (molecule): O=C(COCC(=O)Nc1ccccc1-c1ccc(F)cc1)Nc1ccc(Cl)cc1C(=O)O ; field requested: Cmax 41.8

Query (molecule): O=C(COCC(=O)Nc1ccc(Cl)cc1C(=O)O)Nc1cccc(-c2ccoc2)c1 ; field requested: Cmax 149

Query (molecule): O=C(COCC(=O)Nc1ccc(Cl)cc1C(=O)[O-])Nc1cccc(-c2cccnc2)c1.[Na+] ; field requested: Cmax 15.1

Query (molecule): Cc1ccc(-c2ccc(F)cc2)cc1NC(=O)COCC(=O)Nc1ccc(Cl)cc1C(=O)O ; field requested: Cmax 92.7

Query (molecule): O=C(COCC(=O)Nc1ccc(Cl)cc1C(=O)O)Nc1ccc(-c2ccncc2)cc1 ; field requested: Cmax 7.8

Query (molecule): O=C(COCC(=O)Nc1ccc(Cl)cc1C(=O)O)Nc1cccc(-c2ccsc2)c1 ; field requested: Cmax 86.5

Query (molecule): O=C(COCC(=O)Nc1ccc(Cl)cc1C(=O)O)Nc1cccc(-c2ccncc2)c1 ; field requested: Cmax 18

----------
Target of assay: Plasminogen activator inhibitor 1 (Homo sapiens)
Sequence (P05121 whole entry): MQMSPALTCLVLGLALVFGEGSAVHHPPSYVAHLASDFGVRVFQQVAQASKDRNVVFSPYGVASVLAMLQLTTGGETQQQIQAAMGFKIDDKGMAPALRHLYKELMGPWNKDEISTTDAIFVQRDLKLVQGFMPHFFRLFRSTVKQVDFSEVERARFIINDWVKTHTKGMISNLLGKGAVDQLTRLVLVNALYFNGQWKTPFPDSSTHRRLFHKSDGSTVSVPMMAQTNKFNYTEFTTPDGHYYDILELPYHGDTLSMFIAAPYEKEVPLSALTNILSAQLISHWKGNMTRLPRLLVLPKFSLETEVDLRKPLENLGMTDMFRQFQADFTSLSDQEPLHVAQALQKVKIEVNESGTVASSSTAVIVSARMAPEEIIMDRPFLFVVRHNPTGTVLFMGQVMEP
Run description: Inhibition of human PAI-1 assessed as remaining enzyme activity by measuring p-nitroaniline release pre-incubated for 15 mins before 2 nM […] addition for 15 mins using 5 nM enzyme and chromogenic substrate S-2288 by spectrophotometry
Recorded metric: IC50 (nM)
Output spec: scalar in nM, unitless text.

The following molecules have reported results that may help.
* O=C(Nc1ccc(Cl)cc1C(=O)O)c1cccc(C23CC4CC(CC(C4)C2)C3)c1 | 1860
* O=C(Nc1ccc(Cl)cc1C(=O)O)c1ccc(Oc2ccccc2)cc1 | 5520
* O=C(Nc1ccc(Cl)cc1C(=O)[O-])c1cccc(-c2cncc3ccccc23)c1.[Na+] | 3190

Query (molecule): O=C(Nc1ccc(Cl)cc1C(=O)[O-])c1cccc(-c2cccc3cccnc23)c1.[Na+] ; field requested: IC50 3630

Query (molecule): O=C(Nc1ccc(Cl)cc1C(=O)O)c1cccc(-c2cccc3ccccc23)c1 ; field requested: IC50 900

Query (molecule): O=C(Nc1ccc(Cl)cc1C(=O)O)c1ccc(-c2ccccc2)cc1 ; field requested: IC50 2980

Query (molecule): O=C(Nc1ccc(Cl)cc1C(=O)O)c1ccc(C2CCCCC2)cc1 ; field requested: IC50 2400

Query (molecule): CC(C)(C)c1ccc(C(=O)Nc2ccc(Cl)cc2C(=O)O)cc1 ; field requested: IC50 5200

Query (molecule): O=C(Nc1ccc(Cl)cc1C(=O)O)c1cccc(C2CCCCC2)c1 ; field requested: IC50 2420

----------
Run description: Half life in Wistar rat at 5 mg/kg, po administered as triple or quadruple dosing measured after 1 to 24 hrs by reverse-phase HPLC method
Format: ADME, organism-based
Experimental parameters: in vivo
Overview of reported half-life across a group of molecules:
Output spec: scalar in min, unitless text.

The following molecules have reported results that may help.
- O=C(Nc1cccc(-c2ccoc2)c1)C(=O)Nc1ccc(Cl)cc1C(=O)O: 102
- O=C(Nc1ccc(Cl)cc1C(=O)[O-])c1cccc(-c2cnc3ccccc3c2)c1.[Na+]: 210
- O=C(Nc1ccc(Cl)cc1C(=O)O)c1ccc(C2CCCCC2)cc1: 42
- O=C(Nc1ccc(Cl)cc1C(=O)[O-])c1cccc(-c2cccc3cccnc23)c1.[Na+]: 150
- O=C(Nc1ccc(Cl)cc1C(=O)[O-])c1cccc(-c2ccncc2)c1.[Na+]: 96

Query (molecule): O=C(COCC(=O)Nc1ccc(Cl)cc1C(=O)O)NCc1cccc(-c2ccoc2)c1 ; field requested: half-life 162

Query (molecule): O=C(Cc1cccc(-c2ccoc2)c1)Nc1ccc(Cl)cc1C(=O)O ; field requested: half-life 114

Query (molecule): O=C(Nc1ccc(Cl)cc1C(=O)O)c1cccc(-c2ccoc2)c1 ; field requested: half-life 120

Query (molecule): O=C(Nc1ccc(Cl)cc1C(=O)O)c1cccc(C2=CCCCC2)c1 ; field requested: half-life 42

Query (molecule): O=C(Nc1ccc(Cl)cc1C(=O)O)c1cccc(C23CC4CC(CC(C4)C2)C3)c1 ; field requested: half-life 138

Query (molecule): O=C(Nc1ccc(Cl)cc1C(=O)O)c1ccc(Oc2ccccc2)cc1 ; field requested: half-life 798

Query (molecule): O=C(Nc1ccc(Cl)cc1C(=O)O)c1ccc(C(=O)c2ccccc2)cc1 ; field requested: half-life 54

----------
Overview of reported Tmax across a group of compounds:
Run description: Tmax in Wistar rat at 5 mg/kg, po administered as single dose measured after 1 to 24 hrs by reverse-phase HPLC method
Assay type: ADME, organism-based
Experimental parameters: in vivo
Output spec: scalar in h, unitless text.

The following compounds have reported results that may help.
• COc1ccccc1-c1ccc(C)c(NC(=O)COCC(=O)Nc2ccc(Cl)cc2C(=O)O)c1 = 2
• O=C(COCC(=O)Nc1ccc(Cl)cc1C(=O)O)Nc1cccc(-c2ccon2)c1 = 2
• COc1cccc(-c2ccc(C)c(NC(=O)COCC(=O)Nc3ccc(Cl)cc3C(=O)O)c2)c1 = 2
• COc1ccc(-c2ccc(C)c(NC(=O)COCC(=O)Nc3ccc(Cl)cc3C(=O)O)c2)cc1 = 2
• O=C(COCC(=O)Nc1ccc(Cl)cc1C(=O)O)Nc1ccc(-c2ccoc2)cc1 = 2

Query (compound): O=C(COCC(=O)Nc1ccc(Cl)cc1C(=O)O)Nc1cccc(-c2ccno2)c1 ; field requested: Tmax 1

Query (compound): O=C(COCC(=O)Nc1ccc(Cl)cc1C(=O)O)Nc1cccc(-c2cn[nH]c2)c1 ; field requested: Tmax 1

Query (compound): O=C(COCC(=O)Nc1ccc(Cl)cc1C(=O)O)Nc1cccc(-c2ccco2)c1 ; field requested: Tmax 2

Query (compound): O=C(COCC(=O)Nc1ccc(Cl)cc1C(=O)[O-])Nc1cccc(-n2cccc2)c1.[Na+] ; field requested: Tmax 2

Query (compound): O=C(COCC(=O)Nc1ccc(Cl)cc1C(=O)O)Nc1cccc(-c2ccoc2)c1 ; field requested: Tmax 1

Query (compound): CCN(C(=O)COCC(=O)Nc1ccc(Cl)cc1C(=O)O)c1cc(-c2ccc(F)cc2)ccc1C ; field requested: Tmax 1
